Test system: Gerste
Assay: Growth inhibition in cereals, greenhouse tray test, sprayed at 3-leaf stage
Assay type: in vivo
Conditions: 1,25 kg/ha; % of growth increment of untreated controls; read-out: Wuchsshemmung in % bei Gerste
parameter: pest or weed control at 1250 g/ha (%)
Answer format: numeric, % implied, no suffix.

A selection of reference data follows.
- smiles-string: "CCc1cccc(CC)c1-n1cncc1C1=NC(C)(C)CO1"
  target-of-assay: "Gerste"
  value-observed: 13
- smiles-string: "CCc1cccc(CC)c1-n1cncc1C(=O)NS(=O)(=O)c1ccccc1Cl"
  target-of-assay: "Gerste"
  value-observed: 19
- smiles-string: "CCc1cccc(CC)c1-n1cncc1-c1nc(C)no1"
  target-of-assay: "Gerste"
  value-observed: 19

Query for Gerste: what pest or weed control at 1250 g/ha does the record show for `CCc1cccc(CC)c1-n1cncc1C=NO` ?
16

Query for Gerste: what pest or weed control at 1250 g/ha does the record show for `CCc1cccc(CC)c1-n1cncc1C(=O)NN(C)C` ?
19

Query for Gerste: what pest or weed control at 1250 g/ha does the record show for `C#CCOC(=O)c1cncn1-c1c(CC)cccc1CC` ?
12

Query for Gerste: what pest or weed control at 1250 g/ha does the record show for `CCc1cccc(CC)c1-n1cncc1C(=O)OC1CCCCC1` ?
17

Query for Gerste: what pest or weed control at 1250 g/ha does the record show for `CCc1cccc(CC)c1-n1cncc1COCc1ccccc1C` ?
17

Query for Gerste: what pest or weed control at 1250 g/ha does the record show for `CCc1cccc(CC)c1-n1cncc1C(=O)ON=C(C)C1CC1` ?
15

###

# maps each entry to its pest or weed control at 620 g/ha
Test system: Reispflanzen
Test: Growth inhibition in paddy rice, small plots
Conditions: Oryza sativa, 504 h, read-out: Wuchsshemmung (%)
Answer format: numeric, % implied, no suffix.

A selection of reference data follows.
- molecule: "CCc1cccc(CC)c1-n1cncc1C(=O)ON=C(C)C [Beispiel 40]"
  value-unit: "%"
  value-observed: 18
- molecule: "CCc1cccc(CC)c1-n1cncc1C(=O)NCC(=O)OC [Beispiel 61]"
  value-unit: "%"
  value-observed: 13
- molecule: "CCc1cccc(CC)c1-n1cncc1C(=O)OC(=O)c1cncn1-c1c(CC)cccc1CC [Beispiel 115]"
  value-unit: "%"
  value-observed: 19
- molecule: "CCc1cccc(CC)c1-n1cncc1C(=O)ON=C(C)C(C)C [Beispiel 42]"
  value-unit: "%"
  value-observed: 14
- molecule: "CCc1cccc(CC)c1-n1cncc1C(=O)NS(=O)(=O)c1ccccc1Cl [Beispiel 103]"
  value-unit: "%"
  value-observed: 15
- molecule: "CCc1cccc(CC)c1-n1cncc1C=O [Beispiel 13, 1-(2,6-Diethylphenyl)-5-formyl-imidazol]"
  value-unit: "%"
  value-observed: 16

# context switch: different molecule, same pest or weed control at 620 g/ha
Entry under review: CCc1cccc(CC)c1-n1cncc1CO [Beispiel 12] . Reported pest or weed control at 620 g/ha?
13
